- targetOrTestSystem: HA from Aichi H3N2 (Influenza A virus, UniProt P03437)
- Construct: purchased Sino Biological 11707-V08H
- experimentDescription: biochemical
- Type: binding, Influenza A/Aichi/2/68 H3N2
Where no end group is shown, it is not given here.
endpointName: pKd
pKd field: float, defined as -log10 of concentration (mol/L).

Request: Value lookup for pKd; key = ARDFYDYDVFYYAMD-NH2 [PeB]
Result: 4.25

###

- System: Aichi H3N2 binding to fetuin
- experimentDescription: SPR inhibition of virus binding to immobilized fetuin
- Set-up: species or system Influenza A/Aichi/2/68 H3N2
- testSettings: Aichi H3N2 binding to fetuin-immobilized SPR surface; virus preincubated with inhibitor 37°C at least 15 min; four parameter logistic fit; mean ± SEM n≥2
Where no end group is shown, it is not given here.
endpointName: IC50 (µM)
Respond with the bare value in µM.

Request: Value lookup for IC50; key = ARDFYDYDVFYYAMD-NH2 [PeB]
Result: 75
